log10 of IC50 values for the molecules below.
Test system: GTL16 cells
Assay: GTL16 cell viability assay (CellTiter Glo)
Format: cell-based
Settings: Homo sapiens, GTL 16, GTL16 gastric cancer cells, 24 hours, triplicates, read-out: GTL-16 Proliferation IC50
Protocol: GTL16 cell line is derived from a gastric cancer patient. GTL16 expresses high level of c-Met receptor tyrosine kinase due to the gene amplification. GTL16 cells were seeded in DMEM medium with 10% FBS and 1% Pene. & Strep. at 5000 cells/well/90 μL in 96 well plate and incubated overnight for attachment at 37° C. in 5% CO2 incubator. […] The chemiluminescent light unit was read in Envision from Perkin Elmer. […] The IC50 was calculated using Spotfire software.
Note the log scale: values are log10 of IC50 expressed in nM.

Examples with their reported log10 of IC50 follow.
{"molecule": "CCO/N=C(\\C)c1ccc2nnc(C(C)c3ccc4ncc(-c5cnn(C)c5)cc4c3)n2n1 (centres unmarked)", "reportedResult": 0.30}
{"molecule": "C/C(=N\\O)c1ccc2nnc([C@H](C)c3c(F)cc4ncc(C(C)(C)O)cc4c3F)n2n1 [24-(R)]", "reportedResult": 2.10}
{"molecule": "C/C(=N\\O)c1ccc2nnc(Sc3ccc4ncc(CN5CCOCC5)cc4c3)n2n1", "reportedResult": 1.36}
{"molecule": "C/C(=N\\O)c1ccc2nnc(Cc3ccc4ncc(CN5CCOCC5)cc4c3)n2n1", "reportedResult": 1.11}
{"molecule": "C/C(=N\\O)c1ccc2nnc(Cc3ccc4ncc(N5CCC(O)CC5)cc4c3)n2n1", "reportedResult": 1.23}

As a next step, examine the molecule that follows.
Request the reported log10 of IC50 associated with `CO/N=C(\C)c1ccc2nnc(Cc3ccc4ncc(-c5cnn(C)c5)cc4c3)n2n1`
-0.30
